Source listed as ChEMBL document CHEMBL4257584.

Kindly state CLhep predicted at 1 µM for each of the entries shown.
- TEST_DESCRIPTION: Hepatic clearance in Sprague-Dawley rat liver microsomes at 1 uM preincubated for 5 mins followed by NADPH addition and measured after 45 mins by LC/MS/MS analysis
- Assay type: ADME, microsome
Give a bare numeral; the unit mL/min/kg is implied.

Given the entry O=C(N[C@@H](Cn1ccnc1)c1ccc(-c2ccc(F)cc2)cc1Cl)c1ccc(-c2nnc(-c3ccncc3)o2)cc1 , report its measured CLhep predicted at 1 µM.
29.9

Given the entry [2H]c1c([2H])c([2H])c(-c2ccc([C@H](Cn3ccnc3)NC(=O)c3ccc(-c4nnc(-c5ccccc5)o4)cc3)c(Cl)c2)c([2H])c1[2H] , report its measured CLhep predicted at 1 µM.
45.6

Given the entry O=C(N[C@@H](Cn1ccnc1)c1ccc(-c2ccccc2)cc1Cl)c1ccc(-c2nnc(-c3ccccc3)o2)cc1 , report its measured CLhep predicted at 1 µM.
46.9

Given the entry CS(=O)(=O)c1ccc(-c2ccc([C@H](Cn3ccnc3)NC(=O)c3ccc(-c4nnc(-c5ccccc5)o4)cc3)c(Cl)c2)cc1 , report its measured CLhep predicted at 1 µM.
31.7
